FYI, the data here is from PubChem BioAssay (NCI).

Tested on: MCF7 breast
Experiment: NCI tumour cell line growth inhibition, 48 h
measured-attribute: TGI

| sample-smiles | TGI |
| --- | --- |
| CCC(CC)(CO)CNc1cc(Cl)nc(N)n1 | > 100 µM |
| COc1ccc(NC(=O)c2sc3nc(C)c(C(=O)/C=C/c4cccc(OC)c4)cc3c2N)cc1 | > 50 µM |

I'd like to know its TGI. The compound in question is CC(=O)C(C(C)=O)[C@@H]1OC(C)(C)O[C@@H]1[C@H]1COC(C)(C)O1
> 100 µM

====

Test system: SK-MEL-28 melanoma
Assay: NCI tumour cell line growth inhibition, 48 h
measured-attribute: GI50

Example cases with answers are listed next.
| molecule | GI50 |
| --- | --- |
| C[C@]12CC[C@H]3[C@@H](CC4SC(N)=NC45C/C(=N/NC(N)=O)CC[C@]35C)[C@@H]1CCC2=O (stereo partly specified) | 1630 nM |
| C[C@H]1CNC(=O)c2cnn3ccc(nc23)N[C@H](C)c2cc(F)ccc2O1 | 18500 nM |
| C=C1C(=O)O[C@H]2[C@H]1CC/C(COC(=O)OC/C1=C/CC[C@@]3(C)O[C@H]3[C@H]3OC(=O)[C@@H](CN(C)C)[C@@H]3CC1)=C\CC[C@@]1(C)O[C@@H]21 | 1570 nM |
| O=C(Nc1ccc(F)cc1)Nc1ccc(Br)c(C(F)(F)F)c1 | 2830 nM |
| CN(C)CCCC1(c2ccc(F)cc2)OCc2cc(-c3cc4ccccc4s3)ccc21 (stereo unspecified) | 1810 nM |
| CCCCCCCCCCCCCC[n+]1ccc(C(N)=O)cc1 | 2830 nM |

State its GI50 on SK-MEL-28 melanoma: Cc1nc2ccccn2c1NC(=O)NNC(=S)Nc1ccc(F)cc1
> 100000 nM

Query GI50 on SK-MEL-28 melanoma for CC(C)c1cccc(O)c(=O)c1
0.138 µg/mL

State its GI50 on SK-MEL-28 melanoma: O=c1oc2cc(OC/C(=N/O)c3ccc(F)cc3)ccc2c2ccccc12
20000 nM

Lab note: need GI50 for CCCCCC[C@@H](C)NC(=O)c1ccc(Nc2nc3ccccc3c3occc23)cc1 on SK-MEL-28 melanoma, anyone have it?
5500 nM

Given the entry CC(=O)/C=C/C1=C(c2csc3ccccc23)c2ccccc2CC1 , what GI50 was observed with SK-MEL-28 melanoma?
16900 nM

====

System: HCC-2998 colon
Assay: NCI tumour cell line growth inhibition, 48 h
measured-attribute: TGI

Guide cases for TGI, answers given:
| compound | TGI |
| --- | --- |
| COc1cc(C2C3=C(CCCC3=O)N(c3ccc(C)cc3)C3=C2C(=O)CCC3)c([N+](=O)[O-])cc1OC | > 100 µM |
| Cc1nc2ccc(F)cc2c(Cl)c1CCCl | 84.9 µM |
| O=c1[nH]c2nccn2c2c1SCCN2 | > 100 µM |
| COC(=O)C(CC(=O)Nc1ccc(Cl)c(Cl)c1)C(=O)C(=O)Nc1ccc(Cl)c(Cl)c1 (stereo not given) | > 100 µM |
| CCSc1nc(=S)n(-c2ccccc2)c(C)c1C(C)=O | > 100 µM |
| Cc1cc(OCCOCCC(F)(F)P(=O)(O)O)ccc1CCc1cnc2c(N)nc3cc(CCC(=O)O)ccc3c2c1 | > 100 µM |
| Cc1[nH]c(N)nc(=S)c1CCC(=O)O | > 100 µM |
| NCCNC(=O)c1cccc2cc3ccccc3nc12 | 21.2 µM |
| OC12c3ccccc3C1CCCCCCCCCC21OCCO1 (stereo not given) | > 100 µM |
| CCOc1ccc(C(C)c2cc3c(cc2OC)OCO3)cc1 (stereo not given) | 12.1 µM |

Now look at this one.
// TGI lookup, key: COc1cc2c(cc1Oc1c(Oc3c(O)c(OC)cc4c3C(CC(C)C)N(C)CC4)c(OC)cc3c1C(CC(C)C)N(C)CC3)C(CC(C)C)N(C)CC2 (stereo not given)
5.17 µM

====

Test system: 786-0 renal
Experiment: NCI tumour cell line growth inhibition, 48 h
measured-attribute: TGI

Worked set:
| compound | TGI |
| --- | --- |
| Cc1nc2ccccn2c1NC(=O)NNC(=S)Nc1ccc(F)cc1 | > 100 µM |
| CC(C)=CC(=O)N[C@H]1CC[C@]2(C)C3CC[C@]4(C)C(C(C)N(C)C)=CCC4C3CCC2[C@H]1O (stereo partly drawn) | 9.23 µM |
| Cn1nc(C(F)(F)F)c(-c2cc(C(F)(F)F)cc(C(F)(F)F)c2)c1-c1ccc(OCc2ccc(Cl)cc2)cc1O | 3.28 µM |
| Nc1ccc(COC(O)CN2CCCCC2)cc1[N+](=O)[O-] (stereo not drawn) | > 100 µM |
| COc1cc(NS(C)(=O)=O)ccc1NCc1c2ccccc2nc2ccccc12 | > 100 µM |
| C=C1SC(=Nc2ccccc2Cl)N(C(=O)c2sc3ccccc3c2Cl)C12CCCCC2 | > 100 µM |
| C[n+]1c2ccccc2nc2ccccc21 | 8.47 µM |
| Cc1cc(Nc2ccc(NS(C)(=O)=O)cc2)c2c(ccc3nccc32)[nH]1 | 45.2 µM |

What measured TGI goes with COc1cc(Cc2cnc(N)nc2N)cc(OC)c1OCCCNc1ccc([N+](=O)[O-])cc1 ?
28 µM

Requested read-out: TGI. Entry: Nc1ccc2ccc(N3CCNCC3)nc2n1
> 100 µM

Recorded TGI of O=[N+]([O-])c1cc2ccc(N(CCO)CCO)nc2nc1N(CCO)CCO , please.
> 100 µM

# get_value(readout='TGI', item= NCCCNOCCCN )
> 100 µM

Fill in the blank: the reported TGI of CN(C)CCCC1(c2ccc(F)cc2)OCc2cc(-c3cc4ccccc4s3)ccc21 (stereo not drawn) is ____.
3.37 µM

I am curious: what TGI value has been reported for O=c1c2cnccc2cc2c3ccccc3ccn12 ?
> 100 µM

// lookup TGI for CC1=NOC(=O)/C1=C/c1ccc([N+](=O)[O-])cc1
> 100 µM

// returns reported TGI for input ClCc1ccccc1Cn1cnc2c(Cl)ncnc21
38.4 µM

====

Tested on: MCF7 breast
Assay: NCI tumour cell line growth inhibition, 48 h
Overview of recorded TGI for various compounds

Consider the following illustrative entries.
| compound | measured-attribute | observed |
| --- | --- | --- |
| CCOC(=O)[C@@]1(C)CC(O)C(=O)N1C (stereo not given in full) | TGI | > 100 µM |
| Nn1c(=O)[nH]c2ncn(Cc3ccccc3)c2c1=O | TGI | > 100 µM |
| O=c1[nH]nc(Nc2ccccc2)c2nnn(C3CCCCC3)c12 | TGI | > 100 µM |
| Cc1c(Cl)cccc1NC(=O)/C=C/c1ccccc1 | TGI | > 100 µM |

Moving on to another compound below.
What value of TGI on MCF7 breast does CN(CCCNC(=O)c1nn(C)c2c1Cc1ccccc1-2)CCCNC(=O)c1nn(C)c2c1Cc1ccccc1-2 have?
31.2 µM

====

Tested on: EKVX NSCLC
Assay: NCI tumour cell line growth inhibition, 48 h
measured-attribute: TGI

Solved entries (count: 4):
| molecule | TGI |
| --- | --- |
| O=C(CN1CCCCC1)Nc1ccc2c(c1)C1Oc3ccccc3CC1CO2 (configuration not stated) | 53.9 µM |
| O=c1c2cnccc2cc2c3ccccc3ccn12 | > 100 µM |
| CC(C(=O)c1ccncc1)c1ccccn1 (configuration not stated) | > 100 µM |
| Clc1ccc2nc(CI)c(CI)nc2c1 | 40.9 µM |

Query: TGI; subject: COc1cc(NS(C)(=O)=O)ccc1NCc1c2ccccc2nc2ccccc12
> 100 µM

What does the data say about its TGI? Entry: COC1=C(C)C(=O)C2=C(C1=O)C1C3CC4=C(C(=O)C(OC)=C(C)C4=O)C(CNC(=O)C(C)O)N3C(C#N)C(C2)N1C (configuration not stated)
0.108 µM

====

Test system: LOX IMVI melanoma
Test: NCI tumour cell line growth inhibition, 48 h
// 0 strictly below 40 µM in TGI; 1 otherwise

Can O=C(CN1CCCCC1)Nc1ccc2c(c1)C1Oc3ccccc3CC1CO2 (stereo not given) be said to have TGI at or above 40 µM?
0

API: above_or_equal(metric=TGI, cutoff=40 µM) for item Cc1ccc(S(=O)(=O)N/N=C2\CC3CC4CCC2C4C3)cc1 (stereo not given)
1

Check if TGI >= 40 µM (inclusive). Item: CCOC(=O)/C=C(\C(=O)OCC)n1cc(Cl)c(=O)n(CC(=O)OCC)c1=O
0

Check if TGI >= 40 µM (inclusive). Item: COc1ccc(C(=O)CC2=Nc3nnc(CCCCCCCc4nnc5n4C(=O)C(CC(=O)c4ccc(OC)cc4)=N5)n3C2=O)cc1
1

Decide: TGI of O=C(OC1CN2CCC1CC2)N(c1ccccc1)c1ccccc1 (stereo not given) >= 40 µM?
1

For this compound, is measured TGI 40 µM or higher? CC(C(=O)c1ccccc1)C1(O)C(=O)Nc2ccc(Cl)cc21 (stereo not given)
1

Quick check: does CN(C)CCCC1(c2ccc(F)cc2)OCc2cc(-c3cc4ccccc4s3)ccc21 (stereo not given) have TGI greater than or equal to 40 µM?
0

Check if TGI >= 40 µM (inclusive). Item: Cn1nc(C(F)(F)F)c(-c2cc(C(F)(F)F)cc(C(F)(F)F)c2)c1-c1ccc(OCc2ccc(Cl)cc2)cc1O
0

# bool: TGI of CCOC(=O)[C@@]1(C)CC(O)C(=O)N1C (stereo not given in full) >= 40 µM
1

Hi, just wondering whether O=C(C#Cc1ccccc1)C1=Cc2ccccc2OC1 shows TGI of 40 µM or higher.
0

Quick check, TGI >= 40 µM? Cc1cc(C)c(C(=O)O)c(SSc2cc(C)cc(C)c2C(=O)O)c1
1

Could you verify whether the entry CCCCCCCC(=O)SCC/C=C/[C@@H]1CC(=O)NCc2nc(cs2)C2=N[C@@](C)(CS2)C(=O)N[C@@H](C(C)C)C(=O)N1 shows TGI of no less than 40 µM?
0

Check the entry NCCNC(=O)c1cccc2cc3ccccc3nc12 : does TGI equal or exceed 40 µM?
0

Is TGI at least 40 µM? Consider COc1cccc2cc(C(=O)Nc3ccccc3)c(=N)oc12
1

Please tell me: is the compound C=CCN1/C(=C2\SC(=S)N(c3ccc(C)cc3)C2=O)Sc2c1ncn(C)c2=O at or over 40 µM in terms of TGI?
1

Assess whether reported TGI for N#Cc1cc(Sc2ccc(N)c(C#N)c2)ccc1N sits at 40 µM or higher.
1

# check: TGI of CC1SC2(CCCCC2)N(NC(=O)CSc2nc3ccc(Cl)cc3c(=O)n2-c2ccccc2)C1=O (stereo not given) is greater than or equal to 40 µM
0

Has COC(=O)[C@]1(c2ccc(N(C)C)cc2OC)C[C@@H]2CCCN(CCc3c1[nH]c1ccccc31)C2 a recorded TGI greater than or equal to 40 µM?
1
